Target: Myo3, P36006
Assay: SPOT array
Details: median of control spots 468
MEASUREMENT NAME: SPOT intensity
Answers are plain numbers.

# batch: return SPOT intensity for each of the 3 binders below
1. MPAPPPPPPPPPGAF
2. SPLGAPPPPPHKDHL
3. FTLPPPPPPPGLDEL

**Result**
1. 163
2. 327
3. 455
